system: NCI-H522 lung; experiment: NCI-60 one-dose screen, 48 h (100 = growth as untreated, 0 = no growth, -100 = all killed); conditions: 10 µM unless noted
The panel holds about 83,000 compounds, 20% with a hit somewhere; the sample as a whole holds those more often. Calls of active or inactive are those of the source. The calls were made as follows: active = growth percent below 10; inactive = the rest.
Experimental readout: growth

Challenge: Specify reported growth for the molecule shown: COc1cc(C2CC(=O)Nc3c2cc(Br)c2ccccc32)cc(Br)c1OC (centres undefined)
Response given: 21.3% (inactive)

Challenge: Specify reported growth for the molecule shown: CC(=O)Oc1ccc(C2OC(c3ccc4ccccc4c3OC(C)=O)=NN2C(C)=O)c(OC(C)=O)c1 (centres undefined)
Response given: 4.49% (active)

Challenge: Specify reported growth for the molecule shown: "COc1c(C)c2c(c(O)c1C/C=C(\C)CCC(=O)OCCN1CCOCC1)C(=O)OC2"
Response given: -3.49% (active)

Challenge: Specify reported growth for the molecule shown: "CCN1C[C@@H](C)n2c(c(O)c3c(=O)n(Cc4ccc(F)c(Cl)c4)nc(C(=O)NC)c32)C1=O"
Response given: 69.3% (inactive)

Challenge: Specify reported growth for the molecule shown: "C[C@]12CC[C@@H]3c4ccc(O)cc4CC[C@H]3[C@@H]1CC[C@@H]2NS(=O)(=O)c1cccc(Br)c1"
Response given: 40.4% (inactive)

Challenge: Specify reported growth for the molecule shown: "Nc1nc(SCC2(CCl)COC2)c2[nH]cnc2n1"
Response given: 80.2% (inactive)

Challenge: Specify reported growth for the molecule shown: "CN(C)CCCN1c2nc3ccccc3cc2Sc2cc3ccccc3nc21"
Response given: -67.7% (active)

Challenge: Specify reported growth for the molecule shown: "Cn1cc(-c2csc(-c3cn(C)c4ncccc34)n2)c2cc(Br)cnc21"
Response given: 98.7% (inactive)

Challenge: Specify reported growth for the molecule shown: "COC(=O)[C@]1(CCSC)N[C@H](c2cn(-c3ccccc3)nc2C)[C@@H]2C(=O)N(c3ccc(C)cc3)C(=O)[C@@H]21"
Response given: 89.6% (inactive)
